test system: T1, PD-1 (UniProt Q15116 25-170, limits assumed)
T1 construct: also called PD-1 protein
T1 sequence (Q15116 25-170 limits assumed): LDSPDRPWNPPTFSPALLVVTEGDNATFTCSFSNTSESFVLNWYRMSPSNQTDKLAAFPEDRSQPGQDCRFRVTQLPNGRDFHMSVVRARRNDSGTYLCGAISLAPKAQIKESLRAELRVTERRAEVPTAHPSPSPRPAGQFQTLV
assay: SPR; set-up and antigen form not restated
endpoint name: pKd
Notebook: values listed as pKd are -log10 of the concentration (mol/L).

Examples from the recorded data:
NB194-P29-z3 (Fc fusion, not shown: IgG4 constant region of vector pCDNA3.4-IgG4) heavy: QVQLVESGGGLVQPGGSLTLSCSASGHSFSIYDMGWFRQAADKERESVAVINFGRGTTYYAESVKGRFTISRDNAKNTVYLQMNSLRAEDTAVYSCGIDRRQYGLGIPPLADHWGQGSQVTVSS : 9.69
NB194-P29 (Fc fusion, not shown: IgG4 constant region of vector pCDNA3.4-IgG4) heavy: QLQLVESGGGSAQAGGSLTLSCTASGHSFSIYDMGWFRQAADKERESVAVINFGRGTTYYAESVKGRFTISLDSAKNTVYLQMNTLKPEDTAVYSCGIDRRQYGLGIPPLADHWGQGSQVTVSS : 9.82
NB194-P29-z5 (Fc fusion, not shown: IgG4 constant region of vector pCDNA3.4-IgG4) heavy: QVQLVESGGGLVQPGGSLRLSCSASGHSFSIYDMGWFRQAPDKERESVAVINFGRGTTYYAESVKGRFTISRDNAKNTVYLQMNSLRAEDTAVYSCGIDRRQYGLGIPPLADHWGQGSQVTVSS : 9.70

Turning to the following binder.
What value of measured pKd is listed for NB194-P29-z2 (Fc fusion, not shown: IgG4 constant region of vector pCDNA3.4-IgG4) heavy: QLQLVESGGGLVQPGGSLRLSCSASGHSFSIYDMGWFRQAADKERESVAVINFGRGTTYYAESVKGRFTISRDNAKNTVYLQMNSLRAEDTAVYSCGIDRRQYGLGIPPLADHWGQGSQVTVSS ?
9.89
